From: patent US20220380314A1

Target: acid ceramidase (hACR) (Homo sapiens, UniProt Q13510)
Construct: expressed in transfected cells; cell lysate used
Sequence (Q13510 143-395 limits assumed): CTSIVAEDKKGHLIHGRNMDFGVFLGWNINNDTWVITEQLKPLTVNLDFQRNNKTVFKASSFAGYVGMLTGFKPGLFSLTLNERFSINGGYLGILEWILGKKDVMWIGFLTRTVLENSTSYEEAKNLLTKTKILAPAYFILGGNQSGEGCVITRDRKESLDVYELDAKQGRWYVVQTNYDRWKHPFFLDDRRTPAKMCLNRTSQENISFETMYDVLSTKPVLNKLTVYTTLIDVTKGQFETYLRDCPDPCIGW
Sequence (Q13510 22-142 limits assumed): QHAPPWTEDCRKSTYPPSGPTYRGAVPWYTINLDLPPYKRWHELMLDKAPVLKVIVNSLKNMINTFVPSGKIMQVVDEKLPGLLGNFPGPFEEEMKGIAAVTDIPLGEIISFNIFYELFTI
Assay: Acid ceramidase inhibition, biochemical fluorescent assay with cell lysates overexpressing acid ceramidase, substrate Rbm14-12
Conditions: cell lysates overexpressing acid ceramidase; 1 hr preincubation at RT; pH 4.5; substrate Rbm14-12 6.3 μM; read-out: hACR IC50
pIC50: −log10 of the molar value.
Below, each of the molecules is paired with its reported pIC50 value.

Look over these answered cases.
1. CCCCNC(=O)N1CCN(C)CC1(C)C [Example 37] ... < 6.00
2. CCCCCNC(=O)N1CC(C)C(N2CCCCC2)CC1(C)C (stereo not shown) [Example 124] ... > 6.70
3. CCCCCNC(=O)N1CCC(N2CCCCC2)CC1(C)C (stereo not shown) [Example 84] ... > 6.70
4. COc1ccc(C2COCC(C)(C)N2C(=O)NCC(F)(F)F)cc1 (stereo not shown) [Example 152] ... < 6.00

I have this molecule here, CC1(C)CCCN1C(=O)NCCc1ccccc1 [Example 54] , and I need its recorded pIC50.
< 6.00

# repeat for CC1(C)COCC(c2ccc(F)cc2)N1C(=O)NCCCCc1ccccc1 (stereo not shown) [Example 136]
> 6.70

# repeat for CN1CC(N2CC(c3ccc4c(c3)N(C(=O)NCCc3ccccc3)C(C)(C)CC4)C2)C1 [Example 69]
< 6.00

# repeat for CC1(C)CC(=O)/C(=C/c2ccccc2)CN1C(=O)NCCCCc1ccccc1 [Example 122]
> 6.70

# repeat for CC(C)CCNC(=O)N1CCN(c2ccccc2)CC1(C)C [Example 42]
< 6.00

# repeat for CC1(C)CC(c2ccccc2)CCN1C(=O)NCCc1ccccc1 (stereo not shown) [Example 55]
> 6.70
